pEC50 values, listed per item
# systemName: T1, human CCR8 (human, UniProt P51685 1-355)
# T1 construct: whole, on cells; construct used for the overexpressing cell lines is not described; also called hCCR8
# T1 sequence (P51685 whole entry): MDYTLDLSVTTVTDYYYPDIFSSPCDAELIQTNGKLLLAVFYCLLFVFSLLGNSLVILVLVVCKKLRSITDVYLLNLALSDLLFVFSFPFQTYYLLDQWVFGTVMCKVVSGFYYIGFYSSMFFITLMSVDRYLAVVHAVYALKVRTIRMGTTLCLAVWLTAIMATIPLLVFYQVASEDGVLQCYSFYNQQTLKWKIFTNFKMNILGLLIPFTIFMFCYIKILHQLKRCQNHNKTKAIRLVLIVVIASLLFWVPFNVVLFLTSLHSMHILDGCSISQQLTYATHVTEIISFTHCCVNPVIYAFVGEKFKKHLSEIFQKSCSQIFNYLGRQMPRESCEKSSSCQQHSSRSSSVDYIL
# experimentalProtocol: FACS, CHO-K1-hCCR8 cells
API: returns pEC50 as number; meaning -log10 of concentration in mol/L.

Some solved entries appear below for comparison.
binder	pEC50
PR004339 (antibody, human IgG1, kappa, V domains shown, light-chain semi-humanized variant of PR004128, IgG1 with DE mutation) VH: EVQLVESGGGLVQPKGSLKLSCAASGFTFNTYAMNWVRQAPGKGLEWVARIRSKSNNYATYYADSVKDRFTISRDDSQSMLYLQMNNLKTEDTAMYYCVRGKENGNYYAMDFWGQGTSVTVSA VL: DIVMTQSPLSLPVTPGEPASISCRSSKSLLHSNGKIYLYWFLQKPGQSPQLLIYRMSNLASGVPDRFSGSGSGTDFTLKISRVEAEDVGVYYCMQHLEYPLTFGQGTKLEIKR	9.02
PR004332 (antibody, human IgG1, kappa, V domains shown, heavy-chain semi-humanized variant of PR004128, IgG1 with DE mutation) VH: EVQLVESGGGLVKPGGSLRLSCAASGFTFNTYAMNWVRQAPGKGLEWVGRIRSKSNNYATYYADSVKDRFTISRDDSKSTLYLQMNSLKTEDTAVYYCVRGKENGNYYAMDYWGQGTTVTVSS VL: DIVMTQAAPSVPVTPGESVSISCRSSKSLLHSNGKIYLYWFLQRPGQSPQLLIYRMSNLASGVPDRFSGSGSGTAFTLRISRVEAEDVGVYYCMQHLEYPLTFGAGTKLEIKR	9.14

Data request: Consider the binder PR004325 (antibody, human IgG1, kappa, V domains shown, PTM variant of PR004128, IgG1 with DE mutation) VH: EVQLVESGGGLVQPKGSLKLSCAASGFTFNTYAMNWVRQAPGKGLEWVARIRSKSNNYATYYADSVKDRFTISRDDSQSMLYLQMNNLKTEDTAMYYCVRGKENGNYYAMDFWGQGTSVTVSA VL: DIVMTQAAPSVPVTPGESVSISCRSSKSLLHSQGKIYLYWFLQRPGQSPQLLIYRMSNLASGVPDRFSGSGSGTAFTLRISRVEAEDVGVYYCMQHLEYPLTFGAGTKLEIKR and give its measured pEC50.
Data returned: 8.88
